Data provenance is PubChem BioAssay (EPA / NIEHS).

assay: BSK_CASM3C_SRB: Viability Assessment in the BioMAP Diversity Plus: CASM3C Assay (AID 2283050); conditions: primary human coronary artery smooth muscle cells;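 further: total protein by SRB staining as cytotoxicity measure in parallel cultures; cells exposed to compound for 24 h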
Calls of active or inactive are those of the source. How the source made its calls: active means hit-call score of the fitted dose curve at least 0.9, where 1 is the maximum; inactive means score below 0.9.
// classify into yes (1) for active, no (0) for inactive

Worked cases, answers included:
- compound: "CNC[C@H](O)c1cccc(O)c1"
  group: "no (0)"
- compound: "Nc1cc([N+](=O)[O-])ccc1Cl"
  group: "no (0)"
- compound: "BrC1CCC(Br)C(Br)CCC(Br)C(Br)CCC1Br (stereo not drawn)"
  group: "no (0)"
- compound: "O=C1OC2(c3cc(Br)c(O)c(Br)c3Oc3c2cc(Br)c(O)c3Br)c2c(Cl)c(Cl)c(Cl)c(Cl)c21"
  group: "no (0)"
- compound: "O=C(O)c1cn(C2CC2)c2cc(N3CCNCC3)c(F)cc2c1=O"
  group: "no (0)"
- compound: "O=C(O)C[C@H](O)C[C@H](O)/C=C/c1c(C2CC2)nc2ccccc2c1-c1ccc(F)cc1"
  group: "no (0)"

Write down the call the test reported for this compound. Item: C#C[C@]1(O)CC[C@H]2[C@@H]3CCC4=Cc5oncc5C[C@]4(C)[C@H]3CC[C@@]21C
yes (1)

Write down the call the test reported for this compound. Item: Cc1ccc2n[nH]nc2c1
no (0)

Write down the call the test reported for this compound. Item: CC(=O)OCCC(C)CC(C)(C)C (stereo not drawn)
no (0)
